// cross-study collection: IC50 for mGluR5 receptor (Sus scrofa, UniProt I3LUI7)

COC(=O)c1cccc(C#Cc2ccc(-c3nc4cnccn4c3NC(C)(C)C)s2)c1: 840 nM

Your task in this section: give IC50 for each listed record.
1. Cc1noc2c1CN(C(=O)C#Cc1ccccc1)CC2
2. O=C(C#Cc1cccc(Cl)c1)NC1CCCN(c2nccs2)C1 (stereo not drawn)
3. CNc1c(-c2ccc(C#Cc3ccccn3)s2)nc2cnccn12
4. O=C(C#Cc1ccccc1)N1CCc2ccccc21
5. Cc1ccc(C#Cc2ccc(-c3nc4cnccn4c3NC(C)(C)C)s2)cc1
6. COc1ccc2c(c1)CN(C(=O)C#Cc1cccc(Cl)c1)CC2

Result string:
1: 3550 nM; 2: 5 nM; 3: 120 nM; 4: 7940 nM; 5: 7740 nM; 6: 76 nM
